Origin of the recorded values: ChEMBL document CHEMBL1157605

target: UniProtKB P11229; details: CHO
Sequence (P11229 whole entry): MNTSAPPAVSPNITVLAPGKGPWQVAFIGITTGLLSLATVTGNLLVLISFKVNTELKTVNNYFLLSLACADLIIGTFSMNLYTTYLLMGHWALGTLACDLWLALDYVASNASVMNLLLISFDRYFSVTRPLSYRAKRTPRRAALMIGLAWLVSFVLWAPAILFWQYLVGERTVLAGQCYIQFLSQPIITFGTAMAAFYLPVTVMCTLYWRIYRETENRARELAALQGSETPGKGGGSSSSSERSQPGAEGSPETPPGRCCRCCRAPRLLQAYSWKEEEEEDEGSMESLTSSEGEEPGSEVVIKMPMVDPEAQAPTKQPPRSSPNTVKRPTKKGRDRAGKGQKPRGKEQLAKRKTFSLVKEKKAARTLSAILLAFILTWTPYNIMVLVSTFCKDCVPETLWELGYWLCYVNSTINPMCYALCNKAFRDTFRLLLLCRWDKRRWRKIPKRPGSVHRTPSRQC
Description: Displacement of [3H]NMS from human muscarinic M1 receptor expressed in CHO cells in binary complex by EATCM analysis
experimental-readout: logKd

substance_smiles=CN1CCC=C(c2nsnc2OCCCCNCCCCNc2c3c(nc4ccccc24)CCCC3)C1 reported_result=8.13
substance_smiles=CN1CCC=C(c2nsnc2OCCCOCC(=O)NCCCCCCCCNc2c3c(nc4ccccc24)CCCC3)C1 reported_result=6.88
substance_smiles=CN1CCC=C(c2nsnc2OCCCOCCCC(=O)NCCCCCCCCNc2c3c(nc4ccccc24)CCCC3)C1 reported_result=7.38
substance_smiles=CCCCCCOc1nsnc1C1=CCCN(C)C1 reported_result=7.4
substance_smiles=CN1CCC=C(c2nsnc2OCCCOCCC(=O)NCCCCCCCCNc2c3c(nc4ccccc24)CCCC3)C1 reported_result=7.57
substance_smiles=CN1CCC=C(c2nsnc2OCCCOCC(=O)NCCCNc2c3c(nc4ccccc24)CCCC3)C1 reported_result=8.1
substance_smiles=CN1CCC=C(c2nsnc2OCCCOCCC(=O)NCCCNc2c3c(nc4ccccc24)CCCC3)C1 reported_result=8.09
